Biological target: FGFR2 (Homo sapiens (Human))
Assay: Biochemical FGFR2 Caliper assay
# IC50 annotations
quantity: IC50

1) Cc1cccc(Oc2ccc(-c3c(-c4cccc(NC#N)c4)n(C)c4ncnc(N)c34)cc2)n1 = < 100 nM
2) C#Cc1nc(C)c(-c2c(-c3ccc(Oc4nccc(C)n4)c(F)c3)c3c(N)ncnc3n2C)c(C)n1 = < 100 nM
3) C=C(C)C(=O)Nc1ccc(-c2c(C3=CC[C@@]4(CC3)CCN(C)C4=O)c3c(N)ncnc3n2C)cc1 (single isomer, unassigned) = 1000 to 100000 nM
4) C=C(C)C(=O)Nc1cc(C)c(-c2c(-c3ccc(Oc4nccc(C)n4)cc3)c3c(N)ncnc3n2C)c(C)c1 = < 100 nM
5) C#Cc1cc(-c2c(-c3ccc(Oc4nccc(C)n4)c(F)c3)c3c(N)ncnc3n2C)ccn1 = 250 to 1000 nM
6) C#Cc1cc(C)c(-c2[nH]c3ncnc(N)c3c2-c2ccc(Oc3nccc(C)n3)cc2)cn1 = 250 to 1000 nM
7) C=CC(=O)Nc1ccc(-c2c(-c3ccc(Oc4nccc(C)n4)cc3)c3c(C)ncnc3n2C)c(C)c1 = < 100 nM
8) C=C(C)C(=O)Nc1ccc(-c2[nH]c3cncnc3c2-c2ccc(Oc3cccc(C)n3)cc2)cc1 = < 100 nM
9) C=CC(=O)N[C@H]1Cc2ccc(-c3c(-c4ccc(Oc5nccc(C)n5)cc4)c4c(N)ncnc4n3C)cc2C1 (single isomer, unassigned) = 250 to 1000 nM
10) [2H]C#Cc1cc2c(cn1)-c1c(-c3ccc(Oc4nccc(C)n4)c(F)c3)c3c(N)ncnc3n1CCC2 = < 100 nM
11) C=C(C)C(=O)Nc1ccc(-c2c(C3=CC[C@H](S(=O)(=O)N4CCCC4)CC3)c3c(N)ncnc3n2C)cc1 = 1000 to 100000 nM
12) C=C1C(=O)N(c2ccc(-c3c(-c4ccc(Oc5nccc(C)n5)cc4)c4c(N)ncnc4n3C)cc2)C[C@@H]1C = 100 to 250 nM
13) C#Cc1ncc2cc(-c3c(-c4ccc(Oc5nccc(C)n5)c(F)c4)c4c(N)ncnc4n3C)n(C)c2n1 = < 100 nM
14) C=C(C)C(=O)Nc1cnc(-c2c(-c3ccc(Oc4cccc(C)n4)c(F)c3)c3c(N)ncnc3n2C)c(C)c1 = < 100 nM
15) C=C1CCc2cc(-c3c(-c4ccc(Oc5nccc(C)n5)cc4)c4c(N)ncnc4n3C)ccc2C1=O = < 100 nM
16) C=C1C(=O)N(c2ccc(-c3c(-c4ccc(Oc5nccc(C)n5)cc4)c4c(N)ncnc4n3C)cc2)C[C@H]1C = 250 to 1000 nM
17) C=CC(=O)Nc1cc(-c2c(-c3ccc(Oc4nccc(C)n4)cc3)c3c(N)ncnc3n2C)n(C)n1 = < 100 nM
18) C=C(C)C(=O)Nc1ccc(-c2c(C3=CC[C@H](C(=O)NCC4(F)COC4)CC3)c3c(N)ncnc3n2C)cc1 = 1000 to 100000 nM
19) C#Cc1ncc(-c2c(-c3ccc(C(=O)NCC(C)C)cc3)c3c(N)ncnc3n2C)c(C)c1F = < 100 nM
20) Cc1ccnc(Oc2ccc(-c3c(-c4ccc(OC[C@H]5CO5)cc4)n(C)c4ncnc(N)c34)cc2)n1 (single isomer, unassigned) = 100 to 250 nM
21) C=C(C)C(=O)Nc1ccc(-c2cn3ncnc(N)c3c2C2=CCC(C(=O)N(C)C)CC2)cc1 (stereo not drawn) = 250 to 1000 nM
22) C=CC(=O)N1C[C@@H](c2c(-c3ccc(C(=O)N4CCCCC4)cc3)c3c(N)ncnc3n2C)C[C@@H]1C (single isomer, unassigned) = 1000 to 100000 nM
23) Cc1ccnc(Oc2ccc(-c3c(-c4ccc(-c5cnc(C#N)s5)cc4)n(C)c4ncnc(N)c34)cc2)n1 = 250 to 1000 nM
24) C=C1C[C@@H](C)N(c2ccc(-c3c(-c4ccc(Oc5nccc(C)n5)cc4)c4c(N)ncnc4n3C)cc2)C1=O = < 100 nM
25) C=C(C)C(=O)Nc1cc(C)c(-c2c(C3=CC[C@H](C(=O)N4CCCC4)CC3)c3c(N)ncnc3n2C)c(C)c1 (single isomer, unassigned) = 1000 to 100000 nM
26) C=C(C)C(=O)Nc1ccc(-c2sc3ncnc(N)c3c2-c2ccc(Oc3cccc(C)n3)cc2)cc1 = < 100 nM
27) C=C(C)C(=O)Nc1ccc(-c2c(-c3ccc(C(=O)NC4(COC)CCC4)c(OC)c3)c3c(N)ncnc3n2C)cc1 = < 100 nM

* * *

Reported IC50 is given for each of the following molecules.
Target: FGFR2 (Homo sapiens (Human), UniProt P21802)
Sequence (P21802 22-821): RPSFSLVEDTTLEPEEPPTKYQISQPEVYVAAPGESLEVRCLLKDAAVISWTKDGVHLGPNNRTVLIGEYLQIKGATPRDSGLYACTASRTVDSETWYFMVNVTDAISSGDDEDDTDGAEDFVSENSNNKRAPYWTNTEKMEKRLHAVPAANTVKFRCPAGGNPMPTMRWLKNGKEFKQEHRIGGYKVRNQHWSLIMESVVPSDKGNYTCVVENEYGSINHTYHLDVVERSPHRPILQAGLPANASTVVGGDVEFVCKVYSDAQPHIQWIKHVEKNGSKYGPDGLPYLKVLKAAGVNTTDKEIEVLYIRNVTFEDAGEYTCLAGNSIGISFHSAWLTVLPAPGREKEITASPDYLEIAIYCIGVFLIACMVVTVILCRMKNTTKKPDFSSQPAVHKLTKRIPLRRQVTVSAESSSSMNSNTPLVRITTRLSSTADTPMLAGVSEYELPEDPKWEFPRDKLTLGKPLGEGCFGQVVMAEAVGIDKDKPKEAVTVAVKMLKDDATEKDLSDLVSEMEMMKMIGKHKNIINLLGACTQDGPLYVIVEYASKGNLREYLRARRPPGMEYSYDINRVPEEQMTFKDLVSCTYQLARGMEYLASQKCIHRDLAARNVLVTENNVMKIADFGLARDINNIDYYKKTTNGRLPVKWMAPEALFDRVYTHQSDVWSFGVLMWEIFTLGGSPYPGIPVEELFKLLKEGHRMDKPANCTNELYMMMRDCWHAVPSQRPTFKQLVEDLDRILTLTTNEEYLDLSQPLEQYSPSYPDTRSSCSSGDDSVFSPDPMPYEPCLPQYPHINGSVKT
Test: Biochemical FGFR2 Caliper assay
quantity: IC50

1) C#Cc1cc(C)c(-c2c(C3=CC[C@H](C(=O)N4CCCC4)CC3)c3c(N)ncnc3n2C)cn1 [Example 1111] = < 0.1 µM
2) C=CC(=O)Nc1cc(-c2c(-c3ccc(Oc4cccc(C)n4)cc3)c3c(N)ncnc3n2C)n(C)n1 [Example 1098] = < 0.1 µM
3) C=C(C)C(=O)Nc1ccc(-c2c(C3=CC[C@@H](C(=O)N4CCC[C@@H]4C4CC4)CC3)c3c(N)ncnc3n2C)cc1 [Example 1055] = < 0.1 µM
4) C=C(C)C(=O)Nc1ccc(-c2c(C3=CC[C@@H](C(=O)N4CCC[C@@H]4C)CC3)c3c(N)ncnc3n2C)cc1 [Example 1003] = 0.25 to 1 µM

* * *

Measured pIC50 by item
Target: FGFR2 (Homo sapiens (Human))
Assay: Biochemical FGFR2 Caliper assay
pIC50: −log10 of the molar value.
quantity: pIC50

1. C#Cc1cc(F)c(-c2c(-c3ccc(Oc4nccc(C)n4)c(F)c3)c3c(C)ncnc3n2C)cn1 [Example 1375] = > 7.00
2. C=C(C)C(=O)Nc1ccc(-c2c(C3=CC[C@@H](C(=O)N4CCC5(CC5)C4)CC3)c3c(N)ncnc3n2C)cc1 (single isomer, unassigned) [Example 891] = 4.00 to 6.00
3. C=C(C)C(=O)Nc1cnn(C)c1-c1c(-c2ccc(Oc3nccc(C)n3)cc2)c2c(N)ncnc2n1C [Example 1072] = 6.00 to 6.60
4. C#Cc1cc(C)c(-c2c(-c3ccc(Oc4nccc(C)n4)c(F)c3)c3c(N)ncnc3n2C)c(F)n1 [Example 1322] = > 7.00
5. C=C(C)C(=O)Nc1ccc(-c2c(C3=CC[C@H](C(=O)N4CCCC4)CC3)c3c(N)ncnc3n2C)c(Cl)c1 [Example 1017] = > 7.00
6. C=Cc1ccc(-c2c(-c3ccccc3)c3c(N)ncnc3n2C)cn1 [Example 1194] = 4.00 to 6.00
7. C=C(C)C(=O)Nc1ccc(-c2c(-c3ccc(-c4nc(C)no4)cc3)c3c(N)ncnc3n2C)cc1 [Example 1244] = 4.00 to 6.00
8. C=C(C)C(=O)Nc1ccc(-c2c(C3=CC[C@H](C(=O)N4CCCC4)C[C@@H]3C)c3c(N)ncnc3n2C)cc1 (single isomer, unassigned) [Example 939] = 4.00 to 6.00
9. C=CC(=O)N1CC(c2c(-c3ccc(C(=O)c4nccc(C)n4)cc3F)c3c(N)ncnc3n2C)C[C@@H]1C (stereo partly drawn) [Example 886] = 6.00 to 6.60
10. C=C(C)C(=O)Nc1ccc(-c2c(-c3ccc(C(=O)c4cccc(C)n4)cc3)c3c(N)ncnn3c2COC)cc1 [Example 853] = 6.00 to 6.60
11. C=C(C)C(=O)Nc1ccc(-c2c(C3=C(F)C[C@H](C(=O)N4CCCC4)CC3)c3c(N)ncnc3n2C)cc1 [Example 882] = 4.00 to 6.00
12. C=C(C)C(=O)Nc1ccc(-c2c(-c3ccc(-c4noc(C5CC5)n4)c(O)c3)c3c(N)ncnc3n2C)cc1 [Example 1373] = > 7.00
13. C=C(C)C(=O)Nc1ccc(-c2c(C3=CC[C@@H](C(=O)N4CCC[C@]45CCOC5)CC3)c3c(N)ncnc3n2C)cc1 (single isomer, unassigned) [Example 954] = > 7.00
14. C=CC(=O)N[C@@H]1Cc2ccc(-c3c(-c4ccc(Oc5nccc(C)n5)cc4)c4c(N)ncnc4n3C)cc2C1 (single isomer, unassigned) [Example 927] = 4.00 to 6.00
15. C=CC(=O)N[C@@H]1C[C@H]1c1c(-c2ccc(C(=O)N3CCCC3)cc2)c2c(N)ncnc2n1C (single isomer, unassigned) [Example 974] = 4.00 to 6.00
16. C=Cc1ccc(-c2c(-c3ccc4nn[nH]c4c3)c3c(N)ncnc3n2C)cn1 [Example 1352] = > 7.00
17. C=C(C)C(=O)Nc1ccc(-c2c(-c3ccc(-c4nnc(C)o4)cc3)c3c(N)ncnc3n2C)cc1 [Example 1123] = 4.00 to 6.00
18. C#Cc1ncc(-c2c(-c3ccc(C(=O)N4CCC[C@H]4C#C)cc3)c3c(N)ncnc3n2C)c(C)n1 [Example 1184] = 4.00 to 6.00
19. C=CC(=O)N1CC[C@H](c2c(C3=CC[C@@H](C(=O)N4CCCC4)CC3)c3c(N)ncnc3n2C)C1 (single isomer, unassigned) [Example 874] = 6.00 to 6.60
20. C#Cc1ncc(-c2c(-c3ccc(Oc4nccc(C)n4)c(F)c3)c3c(N)ncnc3n2C)c2ccccc12 [Example 1233] = > 7.00
21. C=CC(=O)Nc1ccc(-c2c(-c3ccc(Oc4nccc(C)n4)cc3)c3c(N)ncnc3n2C)c(C)c1 [Example 1092] = > 7.00
22. COC(=O)Nc1ccc(-c2c(-c3ccc(C(=O)N4CCCC4)cc3)c3c(N)ncnc3n2C)cc1 [Example 902] = 4.00 to 6.00
23. C=CC(=O)N1CCC(n2cc(-c3c(-c4ccc(C(=O)N5CC6CC5C6)cc4)c4c(N)ncnc4n3C)cn2)CC1 [Example 848] = 6.60 to 7.00
24. C=CC(=O)N1CCC(N)(c2c(-c3ccc(Oc4cccc(C)n4)cc3)c3c(N)ncnc3n2C)C1 (stereo not drawn) [Example 850] = 4.00 to 6.00
25. C=C(C)C(=O)Nc1ccc(-c2c(-c3ccc(OCc4ccccc4)c(F)c3)c3c(N)ncnc3n2C)cc1 [Example 1435] = 4.00 to 6.00
26. C=Cc1ncc(-c2ccc(-c3c(-c4ccc(Oc5nccc(C)n5)cc4)c4c(N)ncnc4n3C)cc2)o1 [Example 947] = > 7.00
27. C=C(C)C(=O)Nc1ccc(-c2c(-c3cnc(-c4ccc(F)cc4)s3)c3c(N)ncnc3n2C)cc1 [Example 1424] = 6.60 to 7.00
